experiment: Pharmacokinetics in rat plasma after intragastric administration, normoxia (UPLC-MS/MS); type: in vivo, Sprague-Dawley rats; conditions: male, Sprague-Dawley, rat, plasma, po, 14 mg/kg, AF (14 mg/kg) combined with PF (80 mg/kg), intragastric, mean ± SD, n = 6, read-out: AUC(0→24 h) (converted)
Observed Property: AUC(0-t) (ng·h/mL)
Reply numerically in ng·h/mL, unit not repeated.

Which measured AUC(0-t) value corresponds to CC12CC(O)C3CC1(OC1OC(CO)C(O)C(O)C1O)C3(COC(=O)c1ccccc1)C(=O)O2 (stereo not shown) ? 129

###

experiment: Pharmacokinetics in rat plasma after intragastric administration, normoxia (UPLC-MS/MS); type: in vivo, Sprague-Dawley rats; conditions: male, Sprague-Dawley, rat, plasma, po, 14 mg/kg, AF alone, 14 mg/kg intragastric, normoxia, mean ± SD, n = 6, read-out: AUC(0→24 h) (converted)
Observed Property: AUC(0-t) (ng·h/mL)
Reply numerically in ng·h/mL, unit not repeated.

Which measured AUC(0-t) value corresponds to CC12CC(O)C3CC1(OC1OC(CO)C(O)C(O)C1O)C3(COC(=O)c1ccccc1)C(=O)O2 (stereo not shown) ? 142

###

assay: Pharmacokinetics in rat plasma after intragastric administration, hypoxia (9.0% O2); format: in vivo, Sprague-Dawley rats; conditions: male, Sprague-Dawley, po, AF 14 mg/kg single intragastric, mean ± SD, n = 6, read-out: AUC(0→24 h) (converted)
Observed Property: AUC(0-t)
Form field: result (number plus unit)

Which measured AUC(0-t) value corresponds to CC12CC(O)C3CC1(OC1OC(CO)C(O)C(O)C1O)C3(COC(=O)c1ccccc1)C(=O)O2 (stereo not shown) ? 138 ng·h/mL

###

experiment: Pharmacokinetics in rat plasma after intragastric administration, normoxia (UPLC-MS/MS); type: in vivo, Sprague-Dawley rats; conditions: male, Sprague-Dawley, rat, plasma, po, 80 mg/kg, PF alone, 80 mg/kg intragastric, normoxia, mean ± SD, n = 6, read-out: MRT(0→24 h) (converted)
Observed Property: MRT last (h)
Reply numerically in h, unit not repeated.

Which measured MRT last value corresponds to "C[C@@]12C[C@@]3(O)O[C@@H](O1)[C@]1(COC(=O)c4ccccc4)[C@H]3C[C@@]12O[C@@H]1O[C@H](CO)[C@@H](O)[C@H](O)[C@H]1O" ? 1.83

###

test: Pharmacokinetics in rat plasma after intragastric administration, normoxia (UPLC-MS/MS); format: in vivo, Sprague-Dawley rats; conditions: PF (80 mg/kg) combined with AF (14 mg/kg), intragastric, mean ± SD, n = 6
Observed Property: clearance (L/h/kg)
Reply numerically in L/h/kg, unit not repeated.

Which measured clearance value corresponds to C[C@@]12C[C@@]3(O)O[C@@H](O1)[C@]1(COC(=O)c4ccccc4)[C@H]3C[C@@]12O[C@@H]1O[C@H](CO)[C@@H](O)[C@H](O)[C@H]1O [PF, paeoniflorin] ? 96

###

experiment: Pharmacokinetics in rat plasma after intragastric administration, normoxia (UPLC-MS/MS); type: in vivo, Sprague-Dawley rats; conditions: PF alone, 80 mg/kg intragastric, normoxia, mean ± SD, n = 6
Observed Property: clearance (mL/min/kg)
Reply numerically in mL/min/kg, unit not repeated.

Which measured clearance value corresponds to "C[C@@]12C[C@@]3(O)O[C@@H](O1)[C@]1(COC(=O)c4ccccc4)[C@H]3C[C@@]12O[C@@H]1O[C@H](CO)[C@@H](O)[C@H](O)[C@H]1O" ? 2300

###

test: Pharmacokinetics in rat plasma after intragastric administration, normoxia (UPLC-MS/MS); type: in vivo, Sprague-Dawley rats; conditions: AF in TPG (TPG dose with AF 14 mg/kg), intragastric, mean ± SD, n = 6
Observed Property: clearance (L/h/kg)
Reply numerically in L/h/kg, unit not repeated.

Which measured clearance value corresponds to CC12CC(O)C3CC1(OC1OC(CO)C(O)C(O)C1O)C3(COC(=O)c1ccccc1)C(=O)O2 (stereo not shown) ? 72

###

Assay: Pharmacokinetics in rat plasma after intragastric administration, normoxia (UPLC-MS/MS)
Type: in vivo, Sprague-Dawley rats
Conditions: male, Sprague-Dawley, rat, plasma, po, 14 mg/kg, AF alone, 14 mg/kg intragastric, normoxia, mean ± SD, n = 6
Experimental: Male Sprague-Dawley (SD) rats (250 g ± 20 g) were purchased from the Animal Center of Capital Medical University (ACCMU, Beijing, China). Animals were housed in individual cages with free access to food and water in a room with the illumination (a 12 h light and dark cycle), temperature and relative humidity controlled automatically. Within five days before experiments a jugular vein in each rat under anaesthesia was cannulated by insertion of an indwelling cannula for blood sampling. […]
Observed Property: Tmax (min)
Reply numerically in min, unit not repeated.

Which measured Tmax value corresponds to CC12CC(O)C3CC1(OC1OC(CO)C(O)C(O)C1O)C3(COC(=O)c1ccccc1)C(=O)O2 (stereo not shown) ? 26.7

###

assay: Pharmacokinetics in rat plasma after intragastric administration, normoxia (UPLC-MS/MS); assay type: in vivo, Sprague-Dawley rats; conditions: male, Sprague-Dawley, rat, plasma, po, 80 mg/kg, PF alone, 80 mg/kg intragastric, normoxia, mean ± SD, n = 6
Observed Property: Tmax (min)
Reply numerically in min, unit not repeated.

Which measured Tmax value corresponds to "C[C@@]12C[C@@]3(O)O[C@@H](O1)[C@]1(COC(=O)c4ccccc4)[C@H]3C[C@@]12O[C@@H]1O[C@H](CO)[C@@H](O)[C@H](O)[C@H]1O" ? 35

###

assay: Pharmacokinetics in rat plasma after intragastric administration, normoxia (UPLC-MS/MS); format: in vivo, Sprague-Dawley rats; conditions: male, Sprague-Dawley, rat, plasma, po, 14 mg/kg, AF in TPG (TPG dose with AF 14 mg/kg), intragastric, mean ± SD, n = 6
Observed Property: Tmax (min)
Reply numerically in min, unit not repeated.

Which measured Tmax value corresponds to CC12CC(O)C3CC1(OC1OC(CO)C(O)C(O)C1O)C3(COC(=O)c1ccccc1)C(=O)O2 (stereo not shown) ? 31.7
